Quick record of AC50 values for UniProtKB Q01959.
Sequence (Q01959 whole entry): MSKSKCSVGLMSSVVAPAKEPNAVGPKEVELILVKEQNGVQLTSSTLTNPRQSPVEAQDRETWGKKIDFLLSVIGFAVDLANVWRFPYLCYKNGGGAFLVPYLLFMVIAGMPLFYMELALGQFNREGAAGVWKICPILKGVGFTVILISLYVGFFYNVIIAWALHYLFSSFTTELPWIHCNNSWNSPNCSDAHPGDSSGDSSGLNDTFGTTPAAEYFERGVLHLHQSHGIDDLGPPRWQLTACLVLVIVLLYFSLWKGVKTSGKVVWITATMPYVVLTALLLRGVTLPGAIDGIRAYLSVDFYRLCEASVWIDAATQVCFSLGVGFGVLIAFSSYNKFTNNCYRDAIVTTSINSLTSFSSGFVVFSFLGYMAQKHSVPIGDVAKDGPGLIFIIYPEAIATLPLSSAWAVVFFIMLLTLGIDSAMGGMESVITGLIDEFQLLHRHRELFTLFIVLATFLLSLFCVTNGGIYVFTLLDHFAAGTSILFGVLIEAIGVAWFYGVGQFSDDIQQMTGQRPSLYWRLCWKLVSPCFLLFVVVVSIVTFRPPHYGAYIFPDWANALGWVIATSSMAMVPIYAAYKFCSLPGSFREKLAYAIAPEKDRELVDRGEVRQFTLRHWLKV

Cc1cc2cc3c(C)cc(=O)oc3c(C)c2o1 [TRIOXSALEN] = > 10 µM
CN1CCC(=C2c3ccccc3CCc3cccnc32)CC1 [AZATADINE] = > 30 µM
CC(=O)O[C@H](CC(=O)[O-])C[N+](C)(C)C [ACETYLCARNITINE] = > 30 µM

Could you now look at the following compound, please?
Dear colleague, I am looking for the recorded AC50 of the following compound: CCC(=O)O[C@H]1CC[C@H]2[C@@H]3CCC4=CC(=O)CC[C@]4(C)[C@H]3CC[C@]12C [TESTOSTERONE PROPIONATE] > 10 µM

###

Target: Muscarinic acetylcholine receptor M1 (Homo sapiens, UniProt P11229); note: assay procedure not described here
Sequence (P11229 whole entry): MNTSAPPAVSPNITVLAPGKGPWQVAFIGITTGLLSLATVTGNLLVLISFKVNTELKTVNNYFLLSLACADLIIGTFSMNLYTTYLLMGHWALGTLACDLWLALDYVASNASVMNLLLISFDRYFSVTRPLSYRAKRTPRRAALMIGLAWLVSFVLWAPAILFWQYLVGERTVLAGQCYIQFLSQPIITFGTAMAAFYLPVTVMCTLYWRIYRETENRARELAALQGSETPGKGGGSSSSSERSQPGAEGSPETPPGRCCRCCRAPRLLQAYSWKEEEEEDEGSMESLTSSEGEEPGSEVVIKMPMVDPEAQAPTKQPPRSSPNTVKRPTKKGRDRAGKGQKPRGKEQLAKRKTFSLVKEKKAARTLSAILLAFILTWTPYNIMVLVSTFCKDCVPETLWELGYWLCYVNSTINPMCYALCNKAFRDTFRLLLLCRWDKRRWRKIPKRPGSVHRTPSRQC
Format: functional, cell-based
experimental.endpoint: AC50

Solved cases below.
C=CCN1CC[C@]23CCCC[C@H]2[C@H]1Cc1ccc(O)cc13 [LEVALLORPHAN] = > 30 µM
CCN(CCCc1ccccc1)CCCc1ccccc1 [ALVERINE] = 0.198 µM
CCOC(=O)N1CSC[C@H]1C(=O)O [TELMESTEINE] = > 30 µM
CN1C(=O)/C(=N\NC(N)=S)c2ccccc21 [METHISAZONE] = > 3 µM
COc1cc2c(cc1OC)CC(=O)N(CCCN(C)C[C@H]1Cc3cc(OC)c(OC)cc31)CC2 [IVABRADINE] = > 30 µM

Dear colleague, I am looking for the recorded AC50 of the following molecule: O=C1/C(=C2\Nc3ccc(S(=O)(=O)O)cc3C2=O)Nc2ccc(S(=O)(=O)O)cc21 [INDIGOTINDISULFONATE] > 30 µM

###

Target: Equilibrative nucleoside transporter 1 (Homo sapiens); note: assay procedure not described here
Sequence (Q99808 whole entry): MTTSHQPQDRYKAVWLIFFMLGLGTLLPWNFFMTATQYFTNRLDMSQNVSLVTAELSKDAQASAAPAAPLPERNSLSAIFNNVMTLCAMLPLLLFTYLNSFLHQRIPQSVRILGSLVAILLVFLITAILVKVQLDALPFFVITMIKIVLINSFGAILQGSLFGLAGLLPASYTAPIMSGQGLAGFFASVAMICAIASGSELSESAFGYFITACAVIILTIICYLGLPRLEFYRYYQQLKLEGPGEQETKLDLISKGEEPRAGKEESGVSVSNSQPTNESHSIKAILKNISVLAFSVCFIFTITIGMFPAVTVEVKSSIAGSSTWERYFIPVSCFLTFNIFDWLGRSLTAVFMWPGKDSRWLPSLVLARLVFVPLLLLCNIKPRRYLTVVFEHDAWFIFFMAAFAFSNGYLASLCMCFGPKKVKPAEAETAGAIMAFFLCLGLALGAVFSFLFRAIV
AC50: recorded values

Solved cases below.
CCC(=O)O[C@]1(C(=O)SCF)[C@H](C)C[C@H]2[C@@H]3C[C@H](F)C4=CC(=O)C=C[C@]4(C)[C@@]3(F)[C@@H](O)C[C@@]21C [FLUTICASONE PROPIONATE] = > 30 µM
Cc1cnc(C(=O)NCCc2ccc(S(=O)(=O)NC(=O)NC3CCCCC3)cc2)cn1 [GLIPIZIDE] = > 30 µM
C[C@]12CCC(=O)C(O)=C1CC[C@@H]1[C@@H]2CC[C@]2(C)C(=O)CC[C@@H]12 [FORMESTANE] = > 30 µM

Dear colleague, I am looking for the recorded AC50 of the following compound: NC1CCN(c2nc3c(cc2F)c(=O)c(C(=O)O)cn3-c2ccc(F)cc2F)C1 (stereo not drawn) [TOSUFLOXACIN] > 30 µM

Dear colleague, I am looking for the recorded AC50 of the following compound: CC12CC3CC(C)(C1)CC(N)(C3)C2 [MEMANTINE] > 30 µM

Dear colleague, I am looking for the recorded AC50 of the following compound: COc1ccccc1OCCNCC(O)COc1cccc2[nH]c3ccccc3c12 (stereo not drawn) [CARVEDILOL] 31.7 µM

Dear colleague, I am looking for the recorded AC50 of the following compound: CN1C(C(=O)Nc2ccccn2)=C(O)c2ccccc2S1(=O)=O [PIROXICAM] > 10 µM

Dear colleague, I am looking for the recorded AC50 of the following compound: CCCN[C@H]1CCc2nc(N)sc2C1 [PRAMIPEXOLE] > 30 µM

Dear colleague, I am looking for the recorded AC50 of the following compound: CCN(CC)CCNC(=O)c1cc(S(C)(=O)=O)ccc1OC [TIAPRIDE] > 30 µM

Dear colleague, I am looking for the recorded AC50 of the following compound: Cn1c(=O)cc(N2CCC[C@@H](N)C2)n(Cc2ccccc2C#N)c1=O [ALOGLIPTIN] > 30 µM

Dear colleague, I am looking for the recorded AC50 of the following compound: CCOC(=O)c1cncn1[C@H](C)c1ccccc1 [ETOMIDATE] > 10 µM

Dear colleague, I am looking for the recorded AC50 of the following compound: C[C@@H](NCCCc1cccc(C(F)(F)F)c1)c1cccc2ccccc12 > 30 µM

Dear colleague, I am looking for the recorded AC50 of the following compound: CN(C)CC[C@@H](c1ccc(Cl)cc1)c1ccccn1 [DEXCHLORPHENIRAMINE] > 30 µM
